Values were extracted from PubChem BioAssay (NCI).

Tested on: SK-OV-3 ovarian
test: NCI tumour cell line growth inhibition, 48 h
This listing pairs molecules with measured TGI.
Please state the value followed by its unit.

Challenge: Value lookup for TGI; key = CC(CC[C@@]1(O)OC2C[C@H]3[C@@H]4CC[C@H]5CC(OC6OC(CO)C(OC7OC(CO)C(O)C(OC8OCC(O)C(O)C8O)C7OC7OC(CO)C(O)C(O)C7O)C(O)C6O)[C@H](O)CC5(C)[C@H]4CCC3(C)C2[C@@H]1C)COC1OC(CO)C(O)C(O)C1O (some centres undefined)
Response given: 43.3 µM

###

Test system: MCF7 breast
test: NCI tumour cell line growth inhibition, 48 h
readout_type: TGI

Challenge: GET /values?readout=TGI&item= Cc1c(C)c2c(c(C)c1OCC(=O)O)CC[C@@](C)(CCC[C@@H](C)CCC[C@@H](C)CCCC(C)C)O2
Response given: 199 µM

Challenge: Fill in the blank: the reported TGI of Nc1nc2c(ccc3ccccc32)s1 is ____.
Response given: > 100 µM

###

Tested on: DLD-1 colon
test: NCI tumour cell line growth inhibition, 48 h
readout_type: TGI

# annotated cases, reported TGI shown
>  <compound>
CCC[CH2][Sn]([CH2]CCC)([O]C(=O)c1cccc(F)c1F)[O]C(=O)c1cccc(F)c1F

>  <TGI>
1.94 µM

$$$$
>  <compound>
C=Cc1c(C)c2cc3[nH]c(cc4nc(cc5nc(cc1[nH]2)C(C)=C5CCC(=O)N(CC)CC)C(CCC(=O)N(CC)CC)=C4C)c(C)c3C=C

>  <TGI>
> 100 µM

$$$$
>  <compound>
O=c1c2cccnc2ncn1CCCN1CCCC1

>  <TGI>
> 100 µM

$$$$
>  <compound>
Cc1ccc(C2C(Cl)C(=O)N2NC(=O)c2ccc(N)cc2)cc1 (stereo not drawn)

>  <TGI>
40.2 µM

$$$$
>  <compound>
COc1ccc(/C(Cl)=C(\C=O)c2ccc(Cl)cc2)cc1OC

>  <TGI>
> 100 µM

$$$$

Challenge: DLD-1 colon / TGI / O=C(/C(=N/Nc1ccccc1)c1ccc([N+](=O)[O-])cc1)c1ccc([N+](=O)[O-])cc1 : value?
Response given: > 100 µM

Challenge: Look up TGI with DLD-1 colon for this compound: CC1=C(C(=O)Nc2ccccc2)C(c2cc(Cl)cc(Cl)c2)C(C(=O)Nc2ccccc2)=C(C)N1
Response given: 20.2 µM

Challenge: Param readout = TGI; param system = DLD-1 colon; param query = CC(=O)NC1=C(N)C(=O)c2ccccc2C1=O ; response: value
Response given: > 100 µM

Challenge: Fill in the recorded TGI for this compound, with DLD-1 colon as test system: O/N=C\C(=Nc1ccc(Cc2ccc(N=C(/C=N\O)NO)cc2)cc1)NO
Response given: > 100 µM

Challenge: Form entry - test system: DLD-1 colon; read-out: TGI; compound: COC(=O)CC(C(C(C)=O)C(=O)OCc1ccccc1)N1C(=O)OC(c2ccccc2)C1c1ccccc1 (stereo not drawn)
Response given: > 100 µM

Challenge: # query: TGI | item O=c1[nH]c(=O)n(C2CC(O)C(CO)O2)cc1COCC(F)(F)F (stereo not drawn) | system: DLD-1 colon
Response given: > 100 µM

Challenge: Item: N#C/C(=C\c1ccccc1)C(NO)Nc1ccccc1 (stereo not drawn) Test system: DLD-1 colon Read-out: TGI Value: ?
Response given: > 100 µM

Challenge: Requested read-out TGI, target or system DLD-1 colon, entry CCCCCCCCCCOC(=O)c1cc[n+](C)cc1
Response given: 32.5 µM

###

Tested on: SK-MEL-2 melanoma
test: NCI tumour cell line growth inhibition, 48 h; in the data active = GI50 below about 0.43 µM; inactive = the rest
Allowed answers: active, inactive

>  <compound>
Cn1cncc1-c1c(F)cncc1NC(=O)c1c(N)nn2cc(F)cnc12

>  <qualitative_label>
active

$$$$
>  <compound>
O=C([CH-]C(=O)c1ccccc1)c1ccccc1.O=C([CH-]C(=O)c1ccccc1)c1ccccc1.O=C([CH-]C(=O)c1ccccc1)c1ccccc1.[Cl-].[Zr+4]

>  <qualitative_label>
inactive

$$$$
>  <compound>
CCN(CC)c1ccc(/C=N/NC(=O)CSc2nc3ccccc3c(=O)n2Cc2ccc(S(N)(=O)=O)cc2)c(O)c1

>  <qualitative_label>
inactive

$$$$
>  <compound>
CCOc1ccc(C(C)=O)cc1NC(=O)c1cccc(-c2nnn(CC)n2)c1

>  <qualitative_label>
inactive

$$$$
>  <compound>
COc1cc(-c2cc3ncccc3c3[nH]c(=O)c4cccnc4c23)cc(OC)c1OC

>  <qualitative_label>
inactive

$$$$

Challenge: Recorded test outcome, item COc1ccc(-c2nsc3c2NC(=O)CC3c2cccc(Cl)c2)cc1 (centres undefined)
Response given: inactive

Challenge: I'd appreciate the recorded outcome for CC12OC(C(=O)C13CCC3)C1C(=O)c3ccc4c(ccc5ccccc54)c3C(=O)C12 (centres undefined) from this test.
Response given: inactive

Challenge: Answer briefly: the call reported for Cn1cc(C2=C(c3ccccc3C(F)(F)F)C(=O)NC2=O)c2ccccc21 in this assay.
Response given: inactive

Challenge: // outcome(item) with item = Oc1c(O)c(Cl)c(Cl)c(Cl)c1Cl
Response given: inactive

###

Documented TGI across a set of compounds
Tested on: RXF 393 renal
test: NCI tumour cell line growth inhibition, 48 h

Challenge: Please look up its TGI: O=C(NC(=O)c1cn(CCN2CCN(C(=O)NCCCCCCNC(=O)N3CCN(CCn4cc(C(=O)NC(=O)OCc5ccccc5)c(=O)[nH]c4=O)CC3)CC2)c(=O)[nH]c1=O)OCc1ccccc1
Response given: > 100 µM

Challenge: Give the measured TGI of COc1ccc(/C=C/C(=O)Oc2ccccc2OC)cc1 .
Response given: 99.8 µM

Challenge: Need TGI, item C=Cc1c(C)c2cc3[nH]c(cc4nc(cc5nc(cc1[nH]2)C(C)=C5CCC(=O)N(CC)CC)C(CCC(=O)N(CC)CC)=C4C)c(C)c3C=C
Response given: > 100 µM

Challenge: Which TGI is listed for CN(C)N=Nc1ccc2[nH]c(=O)[nH]c2c1 ?
Response given: > 100 µM

###

Test system: SNB-19 CNS
test: NCI tumour cell line growth inhibition, 48 h; in the data active = GI50 below about 0.43 µM; inactive = the rest
Choose one outcome from this list and give only that: true (1) for active, false (0) for inactive

Worked examples follow.
>  <compound>
CN1CCN(CCCOc2cccc3nc(Nc4ccc(F)c(F)c4)ccc23)CC1

>  <qualitative_label>
false (0)

$$$$
>  <compound>
COc1ccc2nc3cccc([N+](=O)[O-])c3c(NCCNCCN(C)C)c2c1

>  <qualitative_label>
false (0)

$$$$
>  <compound>
COc1ccc(-c2nc(N)c(C#N)c3c2CCOc2c-3ccc3ccccc23)cc1

>  <qualitative_label>
false (0)

$$$$
>  <compound>
Nc1ccc(-c2ccc3ncc4ccc(=O)n(-c5cccc(C(F)(F)F)c5)c4c3c2)cn1

>  <qualitative_label>
true (1)

$$$$
>  <compound>
NC(CSC(c1ccccc1)(c1ccccc1)c1ccc(F)cc1)C(=O)O (stereo not given)

>  <qualitative_label>
false (0)

$$$$
>  <compound>
CC12OC(C(=O)C13CCC3)C1C(=O)c3ccc4c(ccc5ccccc54)c3C(=O)C12 (stereo not given)

>  <qualitative_label>
false (0)

$$$$

Challenge: # fetch the recorded call for COc1cccc(NC(=O)c2sc3nc4c(cc3c2N)C(O)CCC4)c1 (stereo not given) here
Response given: false (0)

Challenge: Query: recorded result category for COc1ccc(-c2n[nH]nc2-c2cc(OC)c3c(c2)OCO3)cc1 in this test
Response given: true (1)

Challenge: Hi, sorry to bother you, what did the test record for Cn1cc(C2=C(c3ccccc3C(F)(F)F)C(=O)NC2=O)c2ccccc21 ?
Response given: false (0)

Challenge: What call does the record list for Cn1cncc1-c1c(F)cncc1NC(=O)c1c(N)nn2cc(F)cnc12 ?
Response given: false (0)

###

Test system: HOP-92 NSCLC
test: NCI tumour cell line growth inhibition, 48 h
readout_type: TGI

>  <compound>
O=c1[nH]nc(-c2ccc(F)cc2)cc1-c1ccccc1

>  <TGI>
> 100 µM

$$$$
>  <compound>
CC[C@@H](O)C[C@H]1CCC[C@@]2(C[C@@H]3OC(=O)/C=C/[C@@](C)(O)[C@@H](O)[C@H](C)[C@@H](O)[C@H](OC4CCC(N(C)C)C(C)O4)[C@@H](O)[C@](C)(O)CCCCC/C=C/[C@@H]4CC(C)(C)O[C@@]4(O)C[C@H](O2)[C@H]3C)O1 (some centres undefined)

>  <TGI>
37.2 µM

$$$$
>  <compound>
O=C(O)Cn1ccc2ccccc21

>  <TGI>
> 100 µM

$$$$
>  <compound>
CCOC(=O)c1nc2cc(C(F)(F)F)ccc2nc1Oc1ccc(F)cc1

>  <TGI>
> 100 µM

$$$$
>  <compound>
S=C(CSc1ccccc1)Nc1cccc2ccccc12

>  <TGI>
> 100 µM

$$$$

Challenge: I'd like to know its TGI. The compound in question is C=CCn1c(=N)/c(=C(\N)O)s/c1=C1/SC(=S)N(c2ccc(C)cc2)C1=O
Response given: > 100 µM

Challenge: Form field: reported TGI of CNCCCNc1c2ccccc2nc2cccc([N+](=O)[O-])c12
Response given: 0.00423 µM

Challenge: Given the compound COc1cc(-c2cc3ncccc3c3[nH]c(=O)c4cccnc4c23)cc(OC)c1OC , what is its reported TGI?
Response given: > 100 µM

Challenge: Which TGI is reported for this compound? O=C(N/C(=C/c1cccc([N+](=O)[O-])c1)c1nc2ccc(Cl)cc2[nH]1)c1ccccc1
Response given: 78.4 µM

Challenge: Look at this compound and give its reported TGI. C[n+]1ccccc1/C1=c2\cc/c([nH]2)=C(\c2cccc[n+]2C)C2=N/C(=C(/c3cccc[n+]3C)C3C=CC(N3)/C(c3cccc[n+]3C)=C3/C=CC1=N3)C=C2
Response given: > 100 µM

Challenge: I would be grateful if you could share the reported TGI for CCCCN1C(=O)/C(=c2\sc3n(c2=O)C2C(NN=3)N(CC)C(=O)N2CC)c2ccccc21 (centres undefined) .
Response given: 4.58 µM

Challenge: What value of TGI has been reported for the following compound? Cn1cc(C2=C(c3ccccc3C(F)(F)F)C(=O)NC2=O)c2ccccc21
Response given: > 25 µM

Challenge: Query (compound): NCCOc1ncccc1/C=C1\c2ccccc2-c2ccc([N+](=O)[O-])cc21 ; field requested: TGI
Response given: 0.477 µM

Challenge: Looking for the measured TGI of COC(=O)N/N=C(\C)C(CN(C)C)C(c1ccccc1)c1c(O)c2ccccc2oc1=O (centres undefined) , can you help?
Response given: > 100 µM
